# collection of GI50 values tested on OVCAR-3 (Ovarian Cancer)
Express your answer in nM, writing the number without its unit.

# example entries with known answers
1) COc1ccc(C(=O)n2cc(C=C3C(=O)NC(=S)NC3=O)c3cc(OC)ccc32)cc1
1260
2) COc1ccc2c(c1)c(C=C1C(=O)NC(=S)NC1=O)cn2C(=O)c1ccccc1Br
2770
3) COc1ccc2c(c1)c(C=C1C(=O)NC(=S)NC1=O)cn2C(=O)c1cccc2ccccc12
2380

Next:
Fill in the blank: the reported GI50 of O=C1NC(=S)NC(=O)C1=Cc1cn(C(=O)c2cccc3ccccc23)c2ccccc12 is ____. 2460
